Every entry's value here was drawn from ChEMBL document CHEMBL1201862.

tested on: RXF 631; test: NCI tumour cell line growth inhibition, 48 h
The source made the active and inactive calls. No stated cut-off is given here; in the data, active = GI50 up to about 1.1 µM and inactive = higher.
Form field: GI50 (one value per entry).

Give GI50 for this entry on RXF 631: COc1ccccc1NC(=O)C(CC(C(=O)Nc1ccccc1OC)/C(C)=N/Nc1ccc([N+](=O)[O-])cc1[N+](=O)[O-])/C(C)=N/Nc1ccc([N+](=O)[O-])cc1[N+](=O)[O-] (stereo not drawn) 40.6 µM (inactive)

Retrieve GI50 on RXF 631; query COc1cc(C)c2c(c1C)OC(=O)c1c(C)c(Cl)c(O)c(C=O)c1O2 15.5 µM (inactive)

Please look at the following molecule next.
Lab note: RXF 631 assay, enter GI50 for C=CC1(C)/C(=N\O)C(C)(CC)C(=O)N1O (stereo not drawn) here > 100 µM (inactive)

* * *

tested on: IGROV-1; experiment: NCI tumour cell line growth inhibition, 48 h
The source made the active and inactive calls. No stated cut-off is given here; in the data, active = GI50 up to about 1.1 µM and inactive = higher.
Outcome field: choose from True = active, False = inactive

As a guide, the following entries are already answered.
What did the test return for CC(=O)[O-].Cc1ncc(CO)c(/C=N/NC(N)=S)c1[O-].[Zn+2] ? False

Which outcome did this test record for the compound C[C@@H]1C(=O)C[C@H]2C(C)(C)CCC[C@]2(C)[C@@]1(O)CCc1ccoc1 ? False

How did this test come out for COc1ccc(/C=N/n2c(Cc3ccccc3)n[nH]c2=O)c(OC)c1 ? False

Others:
What classification did Cn1ccnc1Sc1ccc(/C=N/NC(=O)c2ccccc2O)cc1[N+](=O)[O-] end up with in this test? False

Kindly provide the recorded test outcome for the following compound: C=C(C)C(=O)OC1C/C(CO)=C\C(O)C/C(C)=C/C2OC(=O)C(=C)C21 (stereo unspecified) False

Per the records of this test, what outcome belongs to CC(Oc1ccc(Oc2cnc3ccc(Cl)cc3n2)cc1)C(=O)O (stereo unspecified) ? False

Call for entry Nc1cc(C(=O)O)nc(O)n1 : False

Fill in: this test's call for COC(=O)c1c(O)ccc2c1c1c(n2Cc2ccc(Cl)cc2Cl)C(=O)c2ccccc2C1 is ___ False

* * *

// reported GI50 for each item listed
test system: IGROV-1; assay: NCI tumour cell line growth inhibition, 48 h
The source made the active and inactive calls. Cut-off read from the data, not from the text of the source: active = GI50 up to about 1.1 µM and inactive = higher.

Worked examples follow.
Give the reported GI50 for this compound. COc1cc2c(cc1OC)C1Cc3sccc3CN1CC2 (stereo not given) > 100 µM (inactive)

Give the value of GI50 reported for the following: O=[N+]([O-])c1ccc2nc3ccscc-3c2c1 27.4 µM (inactive)

Return GI50 for the following compound: Cc1cn(C2CC(n3cc(Cn4cc(Br)c(=O)[nH]c4=O)nn3)C(CO)O2)c(=O)[nH]c1=O (stereo not given) 80 µM (inactive)

In one line, give reported GI50 of the entry CC(=O)[C@]1(O)Cc2c(O)c3c(c(O)c2[C@@H](OC2CC(N)C(O)C(C)O2)C1)C(=O)c1c(OCc2ccccc2)cccc1C3=O (stereo not given in full) . 7.98 µM (inactive)

Now look at this one.
Consider the compound CC1(C)OCC2OC3(c4nc(C#N)c(N)o4)OC(C)(C)OC3C2O1 (stereo not given) and give its recorded GI50. > 100 µM (inactive)

* * *

Each entry below carries its reported GI50.
system: SN12C; assay: NCI tumour cell line growth inhibition, 48 h
The source made the active and inactive calls. Rule as the data show it: active = GI50 up to about 1.1 µM and inactive = higher. Where a SMILES comes first, the peptide text is derived from it. The star is where a group is joined. Boc = CC(C)(C)OC(=O)*

# count of solved cases: 4
Given the compound CN1C(=O)C(O)CC1c1ccc(C(F)(F)F)cc1 (stereo not given) , write its reported GI50. > 100 µM (inactive)

Output measured GI50 for this item: O=[N+]([O-])c1ccc(Cl)c2c([N+](=O)[O-])cccc12 4.56 µM (inactive)

Return value of GI50 for input O=C(O)c1c(O)c2cc(Br)ccc2oc1=O , no commentary. > 100 µM (inactive)

Specify GI50 for COc1c2ccoc2c(OC)c2oc(=O)ccc12 [ISOPIMPINELLIN] and stop. > 100 µM (inactive)

New cases:
Identify measured GI50 associated with O=C(NN1C(=O)CSC1c1ccco1)c1ccncc1 (stereo not given) > 100 µM (inactive)

Quick one: give measured GI50 for COCCOCCOCCC(=O)NC1CC2CCC1(C)C2(C)C (stereo not given) > 100 µM (inactive)

For O=S(=O)(c1ccccc1)c1nccs1 , write its GI50. > 100 µM (inactive)

Answer with the recorded GI50 for the compound listed here: CCOC(=O)C(NCc1ccccc1)(NC(=O)c1ccccc1)C(F)(F)F (stereo not given) > 100 µM (inactive)

Look up GI50 of O=[N+]([O-])/C=C/c1cc2ccccc2[nH]1 and report it. 17.7 µM (inactive)

Consider the compound COC(=O)C(Cc1c[nH]c2ccccc12)NC(=O)C(Cc1c[nH]c2ccccc12)NC(=O)C(Cc1c[nH]c2ccccc12)NC(=O)OC(C)(C)C (stereo not drawn) (Boc-Trp-Trp-Trp-OMe; configuration not given here) . State its measured GI50. 18.9 µM (inactive)
